test system: dallisgrass (Paspalum dilatatum); assay: Test E pre-/postemergence/post directed; assay type: in vivo; conditions: PREEMERGENCE, Rate 32 g/ha
property: Plant response rating, Dallisgrass

INSERT INTO assay_data (compound_smiles, system_tested, property, test_value) VALUES
  ('Cc1cnc(-n2ccc(C(F)(F)F)n2)nc1Cc1cccc(OC(F)(F)F)c1', 'dallisgrass (Paspalum dilatatum)', 'Plant response rating, Dallisgrass', 70),
  ('Cc1cnc(-c2ccc(C(F)(F)F)cc2)nc1Cc1cccc(OC(F)(F)F)c1', 'dallisgrass (Paspalum dilatatum)', 'Plant response rating, Dallisgrass', 95),
  ('Cc1cnc(-n2ccc(C(F)(F)F)n2)nc1Cc1cccc(C(F)(F)F)c1', 'dallisgrass (Paspalum dilatatum)', 'Plant response rating, Dallisgrass', 90),
  ('Cc1cnc(-c2ccc(C(F)(F)F)cc2)nc1Cc1cccc(C(F)(F)F)c1', 'dallisgrass (Paspalum dilatatum)', 'Plant response rating, Dallisgrass', 98);

---

Attribute: Rape plant response rating
system: rape (Brassica napus); experiment: Test B pre-/postemergence; type: in vivo; details: Rate 125 g/ha, Postemergence
property: Rape plant response rating

INSERT INTO results (compound_smiles, property, test_value) VALUES
  ('Cc1cnc(-c2ccc(C(F)(F)F)cc2)nc1Cn1cc(Br)cn1', 'Rape plant response rating', 8),
  ('Cc1cnc(-c2ccc(Cl)c(Cl)c2)nc1Cc1cccc(C#N)c1', 'Rape plant response rating', 3),
  ('Cc1cnc(-n2ccc(C(F)(F)C(F)(F)F)n2)nc1C(=O)c1cccc(OC(F)(F)F)c1', 'Rape plant response rating', 2),
  ('Cc1cnc(-n2cnc(C(F)(F)F)c2)nc1Cc1cccc(C(F)(F)F)c1', 'Rape plant response rating', 10),
  ('Cc1cnc(-n2ccc(C(F)(F)F)n2)nc1C(=O)c1cccc(C(F)(F)F)c1', 'Rape plant response rating', 7);

---

tested on: wheat (Triticum aestivum); assay: Test B pre-/postemergence; type: in vivo; conditions: Rate 62 g/ha, Postemergence
property: Wheat plant response rating

INSERT INTO results (compound_smiles, system_tested, test_value) VALUES
  ('CCc1cnc(-n2ccc(C(F)(F)F)n2)nc1C(=O)c1cccc(C#N)c1', 'wheat (Triticum aestivum)', 3),
  ('Cc1cnc(-c2ccc(Cl)cc2)nc1Cc1cccc(C#N)c1', 'wheat (Triticum aestivum)', 0),
  ('Cc1cnc(-n2ccc(C(F)(F)F)n2)nc1Cc1cccc(OC(F)(F)F)c1', 'wheat (Triticum aestivum)', 2),
  ('Cc1cnc(-c2ccccc2F)nc1Cc1cccc(C#N)c1', 'wheat (Triticum aestivum)', 0),
  ('Cc1cnc(-c2ccc(Cl)cc2F)nc1Cc1cccc(C(F)(F)F)c1', 'wheat (Triticum aestivum)', 2),
  ('CCc1cnc(-n2cnc(C(F)(F)F)n2)nc1Cc1cccc(OC(F)(F)F)c1', 'wheat (Triticum aestivum)', 3),
  ('Cc1cnc(-n2cnc(C(F)(F)F)c2)nc1C(=O)c1cccc(C(F)(F)F)c1', 'wheat (Triticum aestivum)', 3),
  ('Cc1cnc(-c2ccc(Cl)c(Cl)c2)nc1Cc1cccc(C#N)c1', 'wheat (Triticum aestivum)', 1),
  ('O=C(c1cccc(C(F)(F)F)c1)c1ccnc(-n2ccc(C(F)(F)F)n2)n1', 'wheat (Triticum aestivum)', 0),
  ('Cc1cnc(-n2ccc(C(F)(F)F)n2)nc1Cn1ccc(C(F)(F)F)n1', 'wheat (Triticum aestivum)', 4);
